test system: NCI-H460; assay: Cytotoxicity against human H460 cells; format: functional, cell-based
# reported IC50; entries follow

{"columns": ["SMI", "MEASURED TARGET", "IC50"],
 "data": [
  ["O=c1ccc2nc3ccccc3n3c-2c1[C@@H]1Cc2nc4ccccc4nc2[C@H]3[C@H]1O", "NCI-H460", "14 to 40 µM"],
  ["O=c1ccc2nc3ccccc3n3c-2c1[C@H]1c2nc4c(O)cccc4nc2C[C@@H]3[C@@H]1O", "NCI-H460", "14 to 40 µM"],
  ["O=c1ccc2nc3ccccc3n3c-2c1[C@@H]1Cc2nc4cccc(O)c4nc2[C@H]3[C@H]1O", "NCI-H460", "14 to 40 µM"]
]}

Values from ChEMBL document CHEMBL4043062
